system: IRAK4 (Homo sapiens)
Construct: Degradation of IRAK4 in OCI-LY10 was quantitatively measured using Meso Scale Discovery technology; endogenous in cells; host or cells: OCI-LY10
Sequence (Q9NWZ3 whole entry): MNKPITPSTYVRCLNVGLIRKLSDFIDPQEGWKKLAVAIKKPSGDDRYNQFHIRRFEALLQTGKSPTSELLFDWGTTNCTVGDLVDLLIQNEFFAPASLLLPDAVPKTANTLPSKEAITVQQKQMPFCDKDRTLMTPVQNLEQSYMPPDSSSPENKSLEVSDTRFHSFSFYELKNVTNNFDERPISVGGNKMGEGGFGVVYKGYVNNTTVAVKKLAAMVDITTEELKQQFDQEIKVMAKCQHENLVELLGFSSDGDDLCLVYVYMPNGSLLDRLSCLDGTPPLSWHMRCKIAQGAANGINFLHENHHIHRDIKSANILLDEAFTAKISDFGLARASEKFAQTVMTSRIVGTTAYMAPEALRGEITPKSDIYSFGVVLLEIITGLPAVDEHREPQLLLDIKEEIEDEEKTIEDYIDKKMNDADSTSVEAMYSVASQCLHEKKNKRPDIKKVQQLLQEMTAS
experiment-notes: IRAK4 MSD Degradation in OCI-LY10
Type: cell-based
condition-details: OCI-LY10 cells, 24 hrs incubation, MSD; read-out: IRAK4 degradation in OCI-LY10 at 24 hrs: DC50
Method: Degradation of IRAK4 in OCI-LY10 was quantitatively measured using Meso Scale Discovery technology. […] Compounds were then added to the assay plates with a final top concentration of 1 to 10 μM in a 1:3 dilution series with total of 8 doses. […] The assay plates were then incubated at room temperature for 1 hour, washed 3 times with 150 μL/well TBST buffer, and 150 μL/well MSD reading buffer (Meso Scale Discovery catalog number R92TC-2) was added. […]
measured-quantity: DC50

Consider the following illustrative entries.
molecule	measured-quantity	reported
Cn1c(=O)n(C2CCC(=O)NC2=O)c2cccc(N3CCN([C@H]4CCN(C[C@H]5CC[C@H](n6cc(NC(=O)c7cnn8ccc(N9C[C@H]%10C[C@@H]9CO%10)nc78)c(C(F)F)n6)CC5)CC4(F)F)CC3)c21 (stereo partly shown) [I-366]	DC50	> 200 nM
Cc1ccc(-c2nn([C@H]3CC[C@H](CN4CCC(OCC#Cc5cccc6c5n(C)c(=O)n6C5CCC(=O)NC5=O)CC4)CC3)cc2NC(=O)c2cnn3cccnc23)nc1 (stereo partly shown) [I-173]	DC50	10 to 100 nM
Cn1c(=O)n(C2CCC(=O)NC2=O)c2ccc(C3CCN(C[C@H]4CC[C@H](n5cc6cc(NC(=O)c7cccc(C(F)(F)F)n7)c(C(F)F)cc6n5)CC4)CC3(F)F)cc21 (stereo partly shown) [I-569]	DC50	> 200 nM

Lab note: next molecule to report on.
Exercise: Kindly state the measured DC50 obtained for Cn1c(=O)n(C2CCC(=O)NC2=O)c2cccc([C@H]3C[C@@H](COC4CN(C[C@H]5CC[C@H](n6cc(NC(=O)c7cnn8ccc(N9C[C@H]%10C[C@@H]9CO%10)nc78)c(C(F)F)n6)CC5)C4)C3)c21 (stereo partly shown) [I-597] with IRAK4 (Homo sapiens).
Key: < 10 nM
